B1: MATN2 (parent)
chain: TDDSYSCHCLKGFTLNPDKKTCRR

- Variants of: B1
- Protocol Details: protein stability index of a GFP-peptide fusion (GPS, HEK-293T) (PSI 1-6); higher = more stable;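 note: lentivirally expressed fusions sorted by FACS into six bins by GFP to DsRed ratio, PSI derived from sequencing read proportions per bin multiplied by bin number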
- Test Settings: c terminus: a fixed tail appended
Where protein stability index equals or exceeds 3, the correct label is y; where it does not, the label is n.

1) TDDSYSCHCLKTFTLNPDKKTCRR    n
2) TDDSYSCHCLKGFTLNPRKKTCRR    n
3) TDDSYSCHCLKGFTLNPDVKTCRR    n
4) TDDSYSCHCLVGFTLNPDKKTCRR    n
5) TDDSYSCHCLKGATLNPDKKTCRR    n

Then there is this variant:
Can TDDSYSCHCLKGFTLNPDEKTCRR be said to have protein stability index at or above 3?
n
